Below are Ki values recorded for Carbonic anhydrase 7 (Homo sapiens, UniProt P43166).
Numbers only, in nM.

compound	tgt	measurementLabel	obsValue
NS(=O)(=O)c1ccc(NC(=O)Cc2ccccc2)cc1	Carbonic anhydrase 7 (Homo sapiens, UniProt P43166)	Ki	52

Here is another compound to look at.
Give the measured Ki for CCCC(C)C(=O)Nc1ccc(S(N)(=O)=O)cc1 (configuration not stated)
605

====

- Tested on: Rattus norvegicus
- runDescription: Anticonvulsant activity against maximal electroshock-induced seizures in po dosed rat
- Format: functional
measurementLabel: ED50

# count of solved cases: 3
compound	ED50
CCCC(C(=O)Nc1ccc(S(N)(=O)=O)cc1)C(C)C (stereo unspecified)	139 µmol/kg
NS(=O)(=O)Cc1noc2ccccc12 [ZONISAMIDE]	100 µmol/kg
CCC(CC)C(=O)NCc1ccc(S(N)(=O)=O)cc1	87 µmol/kg

Kindly give each listed record's ED50.
1. CCC(CC(C)C)C(=O)Nc1ccc(S(N)(=O)=O)cc1 (stereo unspecified)
2. CC(C)(C)CC(=O)Nc1ccc(S(N)(=O)=O)cc1

1: 56 µmol/kg; 2: 35 µmol/kg
